These entries and their values trace back to patent US20210214460A1.

Molecular target: T1, membrane-bound human BCMA (human, UniProt Q02223 1-184)
T1 construct: whole, on cells; also called huBCMA
T1 sequence (looked up): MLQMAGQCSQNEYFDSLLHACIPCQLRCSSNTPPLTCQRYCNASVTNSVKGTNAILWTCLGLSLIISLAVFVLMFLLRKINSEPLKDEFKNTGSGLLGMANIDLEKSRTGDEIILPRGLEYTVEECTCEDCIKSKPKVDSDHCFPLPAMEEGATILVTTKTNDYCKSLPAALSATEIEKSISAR
Test: flow cytometry on NCI-H929 cells (endogenous BCMA), printed as apparent affinity
property.measured: pEC50
Scale: pEC50 equals -log10([C]), with [C] in mol/L.

Form field: reported pEC50 of 15B2GL monoclonal antibody (antibody, V domains shown, Clone 15B2 was converted into human IgG1 and germlined at four residues (15B2GL); also called germlined 15B2) VH: EVQLVESGGGLVKPGGSLRLSCAASGFTFRSYSMNWVRQAPGKGLEWVSSISGSSNYIYYADSVKGRFTISRDNAKNSLYLQMNSLRAEDTAVYYCARGGNYYVEYFQYWGQGTLVTVSS VL: EIVLTQSPGTLSLSPGERATLSCRASQYISSNYLAWYQQKPGQAPRLLIYGASNRATGIPDRFSGSGSGTDFTLTISRLEPEDFAVYYCQQYGSSPITFGQGTKLEIK
8.50

Need pEC50, item I09 (lead optimized clone of 15B2GL) (antibody, V domains shown, Cloned into an IgG mammalian expression vector ("Maia") designed for ADC conjugation; also called 109 [sic]) VH: EVQLVESGGGLVKPGGSLRLSCAASGFTFSSYSMNWVRQAPGKGLEWVSSISGSSNYIYYADSVKGRFTISRDNAKNSLYLQMNSLRAEDTAVYYCARGGNYFVEYFQQWGQGTLVTVSS VL: EIVLTQSPGTLSLSPGERATLSCRASQYISSNYLAWYQQKPGQAPRLLIYGASNRATGIPDRFSGSGSGTDFTLTISRLEPEDFAVYYCQQYSSDPITFGQGTKLEIK
8.27

Look at this binder and give its reported pEC50. L15 (lead optimized clone of 15B2GL) (antibody, V domains shown, Cloned into an IgG mammalian expression vector ("Maia") designed for ADC conjugation) VH: EVQLVESGGGLVKPGGSLRLSCAASGFTFSSYSMNWVRQAPGKGLEWVSSISGQSNYIYYADSVKGRFTISRDNAKNSLYLQMNSLRAEDTAVYYCARGGNYFVEYFQYWGQGTLVTVSS VL: EIVLTQSPGTLSLSPGERATLSCRASQYISSNNLAWYQQKPGQAPRLLIYGASNRATGIPDRFSGSGSGTDFTLTISRLEPEDFAVYYCQQYADSPITFGQGTKLEIK
8.38

# input binder: anti-BCMA antibody J6M0 (antibody, V domains shown) VH: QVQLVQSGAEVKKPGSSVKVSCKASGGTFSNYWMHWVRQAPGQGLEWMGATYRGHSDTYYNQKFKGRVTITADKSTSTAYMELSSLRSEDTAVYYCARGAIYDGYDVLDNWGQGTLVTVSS VL: DIQMTQSPSSLSASVGDRVTITCSASQDISNYLNWYQQKPGKAPKLLIYYTSNLHSGVPSRFSGSGSGTDFTLTISSLQPEDFATYYCQQYRKLPWTFGQGTKLEIK ; wanted: its pEC50
8.22
